Biological target: T1, human interleukin 13 receptor subunit alpha 2 (IL-13RA2) (human, UniProt Q14627 27-380)
T1 sequence (looked up): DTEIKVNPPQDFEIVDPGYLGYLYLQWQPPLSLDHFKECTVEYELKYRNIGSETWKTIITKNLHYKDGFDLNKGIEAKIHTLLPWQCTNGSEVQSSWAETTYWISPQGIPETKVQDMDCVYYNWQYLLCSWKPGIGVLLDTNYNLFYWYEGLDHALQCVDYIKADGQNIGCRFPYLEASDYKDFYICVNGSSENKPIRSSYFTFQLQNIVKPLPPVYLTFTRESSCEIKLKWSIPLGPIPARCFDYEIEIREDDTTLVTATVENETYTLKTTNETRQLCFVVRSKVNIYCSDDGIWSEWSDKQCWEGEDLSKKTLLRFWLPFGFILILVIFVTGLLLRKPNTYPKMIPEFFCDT
Test: cell-based or functional assay
Please respond with reported internalization EC50 (pHAb dye), A375 cells for every item in the list.

>  <BINDER>
xi61H8C1 hIgG1 (antibody, V domains shown) VH: QVQLQQSGAELARPGASVMLSCKASGYTFTSYWTQWIKQRPGQGLEGIGAIYPGDDDTSYNQKFKGKATLTADKSSSTAYMQLNSLTSEDSAVYYCARGATLLRPFPYWGQGTLVTVSA VL: DIVMTQSHKFMSTSVGDRVSITCKASQDVSTAVAWYQQKPGQSPKLLIYSASYRYTGVPDRFTGSGSGTDFTFTISSVQAEDLAVYSCQQHYSIPPTFGGGTKLEIK

>  <VAL>
~0.441 nM

$$$$
>  <BINDER>
xi74B5E4 hIgG1 (antibody, V domains shown) VH: EVKLVESGGGLVKPGGSLRLSCAASGFTFSTYGMSWVRQTPEKRLEWVATISGGGSYTYYPDSVKGRFTISRDNAKNNLYLQMSSLRSEDTALYYCARRDLRSAMDYWGQGTSVTVSS VL: DIVMTQSQKFMSTSVGDRVSVTCKASQNVDINVAWYQQKPGQSPKALIYSASYRYSGVPDRFTGSGSGTDFTLTISNVQSEDLAEYFCQQYNTYPLTFGGGTKLEIK

>  <VAL>
~0.437 nM

$$$$
>  <BINDER>
xi62F6A8 hIgG1 (antibody, V domains shown) VH: QVQIQQSGAELARPGASVMLSCKASGYTFTDYWMQWIKQRPGQGLEGIGAIYPGDGDTAYNQKFRGKATLTADKSSSTAYMQLNSLASEDSAVYFCARGATLLRPFPFWGQGTLVTVSA VL: DIVMTQSHKFMSTSVGDRVSITCKASQDVSTAVAWYQQKPGQSPKLLIYSASYRYAGVPDRFTGSGSGTDFTFTISSVQAEDLAVYSCQQHYSIPPTFGGGTKLEIK

>  <VAL>
~0.447 nM

$$$$

Continue with the binder presented below.
Which measured internalization EC50 (pHAb dye), A375 cells value corresponds to xi34A5G9 hIgG1 (antibody, V domains shown) VH: EVHLQQSGPELVKPGASVKISCKTSGYTFTEYTMHWVKQSHGKSLEWIGRINPNNGIAEYKQTFKDKATLAVDKSSSTAYMEFRSLTSEDSAVYYCARGEGYGYWFAYWGQGTLVTVSA VL: DIQMTQSPASLSASVGETVTITCRTSDNIYSYLAWYQQRQGKSPQLLVSNARTLAEGVPSRFSGSGSGTQFSLKINSLQPEDFGIYYCQHHSGTPFTFGSGTNLEIE ?
3.63 nM
